Attribution: patent US9233982B2

Listed here: items and their measured pIC50.
measurementTarget: UniProtKB P56817
Sequence (P56817 46-501): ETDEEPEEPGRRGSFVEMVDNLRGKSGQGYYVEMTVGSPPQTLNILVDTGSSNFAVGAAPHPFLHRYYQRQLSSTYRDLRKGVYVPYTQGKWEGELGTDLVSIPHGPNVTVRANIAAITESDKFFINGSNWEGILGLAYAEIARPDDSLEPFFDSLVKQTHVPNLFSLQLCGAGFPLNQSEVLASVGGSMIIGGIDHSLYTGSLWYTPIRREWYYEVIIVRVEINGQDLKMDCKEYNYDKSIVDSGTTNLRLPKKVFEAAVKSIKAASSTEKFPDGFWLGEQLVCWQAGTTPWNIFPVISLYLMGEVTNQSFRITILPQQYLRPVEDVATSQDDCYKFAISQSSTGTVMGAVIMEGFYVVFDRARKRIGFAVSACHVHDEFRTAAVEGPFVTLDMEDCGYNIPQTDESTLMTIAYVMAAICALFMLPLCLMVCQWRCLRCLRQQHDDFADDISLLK
protocolDetails: LanthaScreen BACE1 biochemical assay (TR-FRET)
pIC50: −log10 of the molar value. Counter-ions that a name gives are not always drawn.

// solved cases for pIC50 follow
compound | measurementTarget | pIC50
NC1=NC2(CCCc3sc(-c4cncnc4)cc32)CCS1 (centres unmarked) [Example 7] | UniProtKB P56817 | 4.19 to 5.30
N#Cc1cccc(-c2cc3c(s2)CCCC32CCSC(N)=N2)n1 (centres unmarked) [Example 31] | UniProtKB P56817 | 5.30 to 6.00
CN1C(=O)[C@@]2(CCCc3sc(-c4cccc(C#N)c4)cc32)N=C1N (single isomer, unassigned) [Example 51] | UniProtKB P56817 | > 6.00

Any idea what pIC50 was measured for NC1=NC2(CCCc3sc(-c4cccc(C(F)(F)F)c4)cc32)CCS1 (centres unmarked) [Example 25] ?
5.30 to 6.00

Any idea what pIC50 was measured for N#Cc1cc(-c2cc3c(s2)CCCC32CCSC(N)=N2)cc(C(F)(F)F)c1 (centres unmarked) [Example 32] ?
5.30 to 6.00

Any idea what pIC50 was measured for CN1C(=O)C2(CCCc3sc(-c4cccc(OC(F)(F)F)c4)cc32)N=C1N (centres unmarked) [Example 53] ?
5.30 to 6.00

Any idea what pIC50 was measured for COc1cc(C#N)cc(-c2cc3c(s2)CCCC32CCSC(N)=N2)c1F (centres unmarked) [Example 11] ?
4.19 to 5.30

Any idea what pIC50 was measured for COC(=O)c1cccc(-c2cc3c(s2)CCCC32CCSC(N)=N2)c1 (centres unmarked) [Example 13] ?
4.19 to 5.30

Any idea what pIC50 was measured for CS(=O)(=O)c1cccc(-c2cc3c(s2)CCCC32CCSC(N)=N2)c1 (centres unmarked) [Example 9] ?
4.19 to 5.30

Any idea what pIC50 was measured for CC(C)c1cccc(-c2cc3c(s2)CCCC32CCSC(N)=N2)c1 (centres unmarked) [Example 27] ?
5.30 to 6.00

Any idea what pIC50 was measured for COc1cccc(-c2cccc(-c3cc4c(s3)CC(C)(C)CC43CCSC(N)=N3)c2)c1 (centres unmarked) [Example 41, Formate Salt] ?
5.30 to 6.00

Any idea what pIC50 was measured for CN1C(=O)C2(CCCc3sc(-c4cccc(C#N)c4)cc32)N=C1N (centres unmarked) [Example 49] ?
> 6.00

Any idea what pIC50 was measured for N#Cc1ccc(Cl)c(-c2cc3c(s2)CCCC32CCSC(N)=N2)c1 (centres unmarked) [Example 16] ?
5.30 to 6.00

Any idea what pIC50 was measured for Cc1cc(C#N)cc(-c2cc3c(s2)CCCC32CCSC(N)=N2)c1 (centres unmarked) [Example 35] ?
5.30 to 6.00
